# system.under.test: ScBbc1
# method.description: SPOT peptide array binding signal intensity (averaged, normalized) (arbitrary units (background-subtracted, floor 0; scale differs between SH3 domains)); higher = stronger binding of the SH3 domain to the peptide
metric: SPOT peptide array binding signal intensity
Keep it simple and answer with nothing but the number.

A selection of reference data follows.
{"binder": "EVTPKVPERPSRRKT", "reported.measurement": 2080}
{"binder": "LRIKRKPVQTFFEFI", "reported.measurement": 6.75}

-- ask // SPOT peptide array binding signal intensity lookup, key: IPSRPAPKPPSSASA
-- reply 502

-- ask // SPOT peptide array binding signal intensity lookup, key: LASNSPPVYPKRIRH
-- reply 16.8

-- ask // SPOT peptide array binding signal intensity lookup, key: TYNRTAFQIPGDQSI
-- reply 2.5
